TEST TARGET: cystine/glutamate transporter (Homo sapiens)
Construct: endogenous in cells; host or cells: SKOV3 cells treated with 100 uM DEM (the paragraph also says 'DEM treated EL4 cells')
Sequence (Q9UPY5 1-501): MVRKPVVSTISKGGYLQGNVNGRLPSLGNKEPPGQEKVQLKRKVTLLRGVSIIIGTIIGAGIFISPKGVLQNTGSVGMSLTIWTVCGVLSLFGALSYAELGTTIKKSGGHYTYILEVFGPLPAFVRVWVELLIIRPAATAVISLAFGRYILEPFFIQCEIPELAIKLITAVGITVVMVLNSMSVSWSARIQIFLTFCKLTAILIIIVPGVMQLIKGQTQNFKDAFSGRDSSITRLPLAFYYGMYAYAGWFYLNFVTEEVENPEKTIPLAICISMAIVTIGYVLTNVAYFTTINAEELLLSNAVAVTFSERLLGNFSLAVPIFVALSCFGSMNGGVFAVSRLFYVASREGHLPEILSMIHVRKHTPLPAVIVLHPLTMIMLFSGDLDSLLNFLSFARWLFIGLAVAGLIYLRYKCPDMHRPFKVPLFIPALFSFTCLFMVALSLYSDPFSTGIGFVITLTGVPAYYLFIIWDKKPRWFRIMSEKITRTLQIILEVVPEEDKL
Sequence (P08195 2-529 partner): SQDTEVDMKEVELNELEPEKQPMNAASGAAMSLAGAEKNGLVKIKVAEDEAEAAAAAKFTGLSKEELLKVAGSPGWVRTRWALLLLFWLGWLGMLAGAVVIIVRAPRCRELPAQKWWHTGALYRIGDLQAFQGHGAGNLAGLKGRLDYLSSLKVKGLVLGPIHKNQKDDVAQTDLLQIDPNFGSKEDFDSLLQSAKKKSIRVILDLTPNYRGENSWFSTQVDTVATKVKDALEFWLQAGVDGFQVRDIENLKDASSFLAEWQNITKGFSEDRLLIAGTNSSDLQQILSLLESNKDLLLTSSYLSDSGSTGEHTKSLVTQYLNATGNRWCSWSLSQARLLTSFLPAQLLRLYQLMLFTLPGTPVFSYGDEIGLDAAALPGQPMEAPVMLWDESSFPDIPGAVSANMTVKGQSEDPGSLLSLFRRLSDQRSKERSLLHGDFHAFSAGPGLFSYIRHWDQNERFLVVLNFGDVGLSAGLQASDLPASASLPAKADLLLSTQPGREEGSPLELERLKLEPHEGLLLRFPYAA
TEST DETAILS: inhibition of 3H-L-Glu uptake in DEM treated cells
Format: cell-based
EXPERIMENTAL PARAMETERS: 0.5 h; 1 mM agent; 30 minutes uptake at room temperature; cells pretreated with 100 μM DEM overnight; triplicate; lower = inhibition of the transporter; read-out: % of contro1 3H-Glu uptake
Reported remaining activity at 1000 µM values for a set of molecules
Field: numeric (%). Do not append units.

Would you please look over these solved cases?
MOLECULE: N[C@@H](CCC(=O)N1C[C@@H](OCc2ccccc2)CC1C(=O)O)C(=O)O (stereo partly drawn) [1o]
SCALE UNIT: %
remaining activity at 1000 µM: 43.2

MOLECULE: N[C@@H](CCC(=O)N1C[C@H](O)C[C@H]1C(=O)O)C(=O)O [1c]
SCALE UNIT: %
remaining activity at 1000 µM: 73.6

MOLECULE: N[C@@H](CCC(=O)N1C[C@@H](O)C[C@@H]1C(=O)O)C(=O)O [1e]
SCALE UNIT: %
remaining activity at 1000 µM: 74

Challenge: Would you kindly share the measured remaining activity at 1000 µM for N[C@@H](CCC(=O)N1C[C@H](OCc2ccc(COCCF)cc2)C[C@H]1C(=O)O)C(=O)O [1r] ?
Response given: 10.1

Challenge: Would you kindly share the measured remaining activity at 1000 µM for N[C@@H](CCC(=O)N1C[C@H](Oc2ccccc2)C[C@H]1C(=O)O)C(=O)O [1l] ?
Response given: 36.6

Challenge: Would you kindly share the measured remaining activity at 1000 µM for N[C@@H](CCC(=O)N1C[C@@H](O)C[C@H]1C(=O)O)C(=O)O [1f] ?
Response given: 30.8

====

TEST TARGET: cystine/glutamate transporter (Homo sapiens)
Construct: endogenous in cells; host or cells: SKOV3 cells treated with 100 uM DEM (the paragraph also says 'DEM treated EL4 cells')
Sequence (Q9UPY5 1-501): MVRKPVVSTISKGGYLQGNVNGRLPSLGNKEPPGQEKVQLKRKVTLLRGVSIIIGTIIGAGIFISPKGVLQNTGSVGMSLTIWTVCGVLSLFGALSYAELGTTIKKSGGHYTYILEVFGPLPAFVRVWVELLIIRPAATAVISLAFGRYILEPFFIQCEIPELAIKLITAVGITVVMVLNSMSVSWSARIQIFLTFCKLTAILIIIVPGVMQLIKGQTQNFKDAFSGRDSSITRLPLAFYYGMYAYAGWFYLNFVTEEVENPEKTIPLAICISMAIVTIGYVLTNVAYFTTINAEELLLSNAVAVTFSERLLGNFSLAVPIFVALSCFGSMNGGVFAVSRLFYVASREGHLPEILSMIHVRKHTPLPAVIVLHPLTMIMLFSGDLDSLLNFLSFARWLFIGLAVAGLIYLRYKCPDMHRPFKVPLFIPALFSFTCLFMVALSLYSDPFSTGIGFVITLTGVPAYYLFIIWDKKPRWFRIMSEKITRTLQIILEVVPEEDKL
Sequence (P08195 2-529 partner): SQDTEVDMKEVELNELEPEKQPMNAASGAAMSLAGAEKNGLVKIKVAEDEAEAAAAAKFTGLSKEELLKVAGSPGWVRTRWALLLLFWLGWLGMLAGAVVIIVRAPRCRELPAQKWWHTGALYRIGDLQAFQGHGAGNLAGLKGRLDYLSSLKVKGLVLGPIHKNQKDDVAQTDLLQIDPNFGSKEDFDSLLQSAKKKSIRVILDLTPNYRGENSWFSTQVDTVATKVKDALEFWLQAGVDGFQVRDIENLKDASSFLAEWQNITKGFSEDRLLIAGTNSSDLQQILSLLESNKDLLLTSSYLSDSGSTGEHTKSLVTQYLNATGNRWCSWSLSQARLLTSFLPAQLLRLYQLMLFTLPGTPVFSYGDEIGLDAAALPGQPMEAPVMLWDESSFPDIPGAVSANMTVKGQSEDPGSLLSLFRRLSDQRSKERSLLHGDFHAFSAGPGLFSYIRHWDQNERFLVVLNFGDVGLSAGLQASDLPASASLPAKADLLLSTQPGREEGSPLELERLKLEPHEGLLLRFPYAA
TEST DETAILS: inhibition of 3H-L-Glu uptake in DEM treated cells
Assay type: cell-based
EXPERIMENTAL PARAMETERS: 0.5 h; 1 mM agent; 30 minutes uptake at room temperature; cells pretreated with 100 μM DEM overnight; triplicate; lower = inhibition of the transporter; read-out: % of contro1 3H-Glu uptake
Reported remaining activity at 1000 µM values for a set of compounds
Field: numeric (%). Do not append units.

Would you please look over these solved cases?
COMPOUND: N[C@@H](CCC(=O)N1CCC[C@H]1C(=O)O)C(=O)O
remaining activity at 1000 µM (%): 46.3

COMPOUND: N[C@@H](CCC(=O)N1C[C@H](F)C[C@H]1C(=O)O)C(=O)O
remaining activity at 1000 µM (%): 51.8

COMPOUND: N[C@@H](CCC(=O)N1C[C@H](O)C[C@@H]1C(=O)O)C(=O)O
remaining activity at 1000 µM (%): 94.7

COMPOUND: N[C@@H](CCC(=O)N1C[C@H](Cc2ccccc2)C[C@H]1C(=O)O)C(=O)O
remaining activity at 1000 µM (%): 30.9

COMPOUND: N[C@@H](CCC(=O)N1C[C@H](c2ccccc2)C[C@H]1C(=O)O)C(=O)O
remaining activity at 1000 µM (%): 52.3

Challenge: // fetch cystine/glutamate transporter (Homo sapiens) remaining activity at 1000 µM for N[C@@H](CCC(=O)N1C[C@@H](Oc2ccccc2)C[C@H]1C(=O)O)C(=O)O
Response given: 33

Challenge: // fetch cystine/glutamate transporter (Homo sapiens) remaining activity at 1000 µM for N[C@@H](CCC(=O)N1C[C@@H](c2ccccc2)C[C@H]1C(=O)O)C(=O)O
Response given: 46.2

Challenge: // fetch cystine/glutamate transporter (Homo sapiens) remaining activity at 1000 µM for N[C@@H](CCC(=O)N1C[C@H](OCc2ccccc2)CC1C(=O)O)C(=O)O (stereo partly drawn)
Response given: 50

Challenge: // fetch cystine/glutamate transporter (Homo sapiens) remaining activity at 1000 µM for N[C@@H](CCC(=O)N1C[C@@H](OCc2ccccc2)C[C@H]1C(=O)O)C(=O)O
Response given: 26.2

Challenge: // fetch cystine/glutamate transporter (Homo sapiens) remaining activity at 1000 µM for N[C@@H](CCC(=O)N1C[C@H](OCc2ccccc2)C[C@H]1C(=O)O)C(=O)O
Response given: 14.9

Challenge: // fetch cystine/glutamate transporter (Homo sapiens) remaining activity at 1000 µM for N[C@@H](CCC(=O)N1CCC[C@@H]1C(=O)O)C(=O)O
Response given: 84

Challenge: // fetch cystine/glutamate transporter (Homo sapiens) remaining activity at 1000 µM for CCOc1cccc(CO[C@@H]2C[C@@H](C(=O)O)N(C(=O)CC[C@H](N)C(=O)O)C2)c1
Response given: 14.5
